EXPERIMENT_DESCRIPTION: Clinical study, Second Study (7 days daily oral dosing)
PROTOCOL_CONDITIONS: human, in vivo, po, 25 mg
REPORTED_PROPERTY: AUC (ng·h/mL)
Number only, in ng·h/mL; omit the unit.

Incoming: Any idea what its AUC is? The molecule is Cn1cc(C(=O)O)c2ccc(N3CCC(OCc4c(-c5c(Cl)cccc5Cl)noc4C4CC4)CC3)cc21
Outgoing: 645

----------
EXPERIMENT_DESCRIPTION: PK/PD profile, 1 mg/kg oral for 7 consecutive days
Assay type: in vivo
PROTOCOL_CONDITIONS: cynomolgus monkey, plasma, po, 1 mg/kg, cynomolgus monkeys, oral 1 mg/kg daily, Day 1
REPORTED_PROPERTY: Tmax (h)
Number only, in h; omit the unit.

Incoming: Any idea what its Tmax is? The compound is Cn1cc(C(=O)O)c2ccc(N3CCC(OCc4c(-c5c(Cl)cccc5Cl)noc4C4CC4)CC3)cc21
Outgoing: 1.83

----------
EXPERIMENT_DESCRIPTION: Pharmacokinetics assay, dog
Type: in vivo, beagle dogs
PROTOCOL_CONDITIONS: plasma, iv; Beagle Dog, intravenously 1 mg/kg; read-out: Vdss
REPORTED_PROPERTY: Vd (L/kg)
Number only, in L/kg; omit the unit.

Incoming: Any idea what its Vd is? The molecule is Cn1cc(C(=O)O)c2ccc(N3CCC(OCc4c(-c5c(Cl)cccc5Cl)noc4C4CC4)CC3)cc21
Outgoing: 1.92

----------
EXPERIMENT_DESCRIPTION: Pharmacokinetics assay, monkey
Type: in vivo, cynomolgus monkeys
PROTOCOL_CONDITIONS: plasma, iv; Cynomolgus Monkey, intravenously 0.3 mg/kg
Source text: Results are shown in FIG. 1A (IV administration) and FIG. 1B (oral administration), and in Table 2. […] Smaller Vdss in monkeys is correlated with higher plasma protein binding.
REPORTED_PROPERTY: clearance

Incoming: Any idea what its clearance is? The compound is Cn1cc(C(=O)O)c2ccc(N3CCC(OCc4c(-c5c(Cl)cccc5Cl)noc4C4CC4)CC3)cc21 [Compound 1]
Outgoing: 5 mL/min/kg

----------
EXPERIMENT_DESCRIPTION: PK/PD profile, single oral dose
Format: in vivo
PROTOCOL_CONDITIONS: cynomolgus monkey, plasma; cynomolgus monkeys, oral 0.3 mg/kg
REPORTED_PROPERTY: Cmax (ng/mL)
Number only, in ng/mL; omit the unit.

Incoming: Any idea what its Cmax is? The molecule is Cn1cc(C(=O)O)c2ccc(N3CCC(OCc4c(-c5c(Cl)cccc5Cl)noc4C4CC4)CC3)cc21 [Compound 1]
Outgoing: 58.8

----------
EXPERIMENT_DESCRIPTION: Pharmacokinetics assay, rat
Assay type: in vivo, Sprague-Dawley (SD) rats
PROTOCOL_CONDITIONS: plasma, iv; Sprague-Dawley Rat, intravenously 1 mg/kg
Description: Results are shown in FIG. 1A (IV administration) and FIG. 1B (oral administration), and in Table 2. […] Smaller Vdss in monkeys is correlated with higher plasma protein binding.
REPORTED_PROPERTY: clearance (mL/min/kg)
Number only, in mL/min/kg; omit the unit.

Incoming: Any idea what its clearance is? The compound is Cn1cc(C(=O)O)c2ccc(N3CCC(OCc4c(-c5c(Cl)cccc5Cl)noc4C4CC4)CC3)cc21
Outgoing: 42.5

----------
EXPERIMENT_DESCRIPTION: Single-ascending dose clinical trial: plasma PK and safety
PROTOCOL_CONDITIONS: male, human, plasma, po, 10 mg
REPORTED_PROPERTY: half-life

Incoming: Any idea what its half-life is? The compound is COC1CCN(c2ncc(OC/C(=C/F)CN)cn2)CC1
Outgoing: 1 to 3 h

----------
EXPERIMENT_DESCRIPTION: PK/PD profile, single oral dose
Assay type: in vivo
PROTOCOL_CONDITIONS: cynomolgus monkey, plasma; cynomolgus monkeys, oral 5 mg/kg
Procedure: Pharmacokinetics data is presented in Table 3, and were determined by non-compartmental analysis.
REPORTED_PROPERTY: Tmax (h)
Number only, in h; omit the unit.

Incoming: Any idea what its Tmax is? The compound is Cn1cc(C(=O)O)c2ccc(N3CCC(OCc4c(-c5c(Cl)cccc5Cl)noc4C4CC4)CC3)cc21
Outgoing: 2.25

----------
EXPERIMENT_DESCRIPTION: Pharmacokinetics assay, monkey
Assay type: in vivo, cynomolgus monkeys
PROTOCOL_CONDITIONS: plasma, iv; Cynomolgus Monkey, intravenously 0.3 mg/kg; read-out: IV Terminal t1/2 (converted)
REPORTED_PROPERTY: half-life (h)
Number only, in h; omit the unit.

Incoming: Any idea what its half-life is? The compound is Cn1cc(C(=O)O)c2ccc(N3CCC(OCc4c(-c5c(Cl)cccc5Cl)noc4C4CC4)CC3)cc21 [Compound 1]
Outgoing: 1.32

----------
EXPERIMENT_DESCRIPTION: PK/PD profile, single oral dose
Format: in vivo
PROTOCOL_CONDITIONS: cynomolgus monkey, plasma; cynomolgus monkeys, oral 1 mg/kg
REPORTED_PROPERTY: Cmax (ng/mL)
Number only, in ng/mL; omit the unit.

Incoming: Any idea what its Cmax is? The molecule is Cn1cc(C(=O)O)c2ccc(N3CCC(OCc4c(-c5c(Cl)cccc5Cl)noc4C4CC4)CC3)cc21
Outgoing: 257

----------
EXPERIMENT_DESCRIPTION: PK/PD profile, 1 mg/kg oral for 7 consecutive days
Assay type: in vivo
PROTOCOL_CONDITIONS: cynomolgus monkey, plasma, po, 1 mg/kg, cynomolgus monkeys, oral 1 mg/kg daily, Day 7
REPORTED_PROPERTY: Cmax (ng/mL)
Number only, in ng/mL; omit the unit.

Incoming: Any idea what its Cmax is? The molecule is Cn1cc(C(=O)O)c2ccc(N3CCC(OCc4c(-c5c(Cl)cccc5Cl)noc4C4CC4)CC3)cc21
Outgoing: 221

----------
Please provide measured pEC50 for the entries that follow.
Test system: FXR-regulated gene expression in human HuH7 hepatoma cells
EXPERIMENT_DESCRIPTION: cells
PROTOCOL_CONDITIONS: Huh-7, 11 h, read-out: EC50, SHP Gene induction/HuH7
API: returns pEC50 as number; meaning -log10 of concentration in mol/L.

Incoming: Any idea what its pEC50 is? The compound is CC[C@H]1[C@@H](O)[C@@H]2[C@H](CC[C@]3(C)[C@@H]([C@H](C)CCC(=O)O)CC[C@@H]23)[C@@]2(C)CC[C@@H](O)C[C@@H]12 [OCA, obeticholic acid, reference compound]
Outgoing: 6.70

Incoming: Any idea what its pEC50 is? The compound is Cn1cc(C(=O)O)c2ccc(N3CCC(OCc4c(-c5c(Cl)cccc5Cl)noc4C4CC4)CC3)cc21 [Compound 1]
Outgoing: 7.30

----------
EXPERIMENT_DESCRIPTION: Clinical study, Second Study (7 days daily oral dosing)
PROTOCOL_CONDITIONS: human, in vivo, po, 150 mg
REPORTED_PROPERTY: AUC (ng·h/mL)
Number only, in ng·h/mL; omit the unit.

Incoming: Any idea what its AUC is? The compound is Cn1cc(C(=O)O)c2ccc(N3CCC(OCc4c(-c5c(Cl)cccc5Cl)noc4C4CC4)CC3)cc21
Outgoing: 2160
